molecular target: recombinant human TNFα (human, UniProt P01375 77-233); experiment: cell-based or functional assay
Sequence (P01375 77-233 limits assumed): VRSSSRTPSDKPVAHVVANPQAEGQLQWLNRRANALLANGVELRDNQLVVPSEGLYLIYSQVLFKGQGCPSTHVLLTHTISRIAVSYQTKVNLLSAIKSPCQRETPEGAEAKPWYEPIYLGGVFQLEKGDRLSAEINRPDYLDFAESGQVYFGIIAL
Field: Relative potency: EC50X/EC50TB-A, L929 cells. Provide a value for each of the binders that follow.
Give bare numbers, in ratio EC50X/EC50TB-A.

Worked examples follow.
{"binder": "TB-A H_F68V/F70L (scFv) scFv: DIVMTQSPSSLSASVGDRVTLTCTASQSVSNDVVWYQQRPGKAPKLLIYSAFNRYTGVPSRFSGRGYGTDFTLTISSLQPEDVAVYYCQQDYNSPRTFGQGTKLEVKRGGGGSGGGGSGGGGSGGGGSQVQLVQSGAEVKKPGASVKVSCTASGYTFTHYGMNWVRQAPGKGLEWMGWINTYTGEPTYADKFKDRVTLSLETSASTVYMELTSLTSDDTAVYYCARERGDAMDYWGQGTLVTVSS", "reading": 1.28}
{"binder": "TB-A Linker_G2R H_F68L (scFv) scFv: DIVMTQSPSSLSASVGDRVTLTCTASQSVSNDVVWYQQRPGKAPKLLIYSAFNRYTGVPSRFSGRGYGTDFTLTISSLQPEDVAVYYCQQDYNSPRTFGQGTKLEVKRGRGGSGGGGSGGGGSGGGGSQVQLVQSGAEVKKPGASVKVSCTASGYTFTHYGMNWVRQAPGKGLEWMGWINTYTGEPTYADKFKDRLTFSLETSASTVYMELTSLTSDDTAVYYCARERGDAMDYWGQGTLVTVSS", "reading": 0.8}

For each of the binders below, note its Relative potency: EC50X/EC50TB-A, L929 cells.
1. TB-A H_K43R/F68I (scFv) scFv: DIVMTQSPSSLSASVGDRVTLTCTASQSVSNDVVWYQQRPGKAPKLLIYSAFNRYTGVPSRFSGRGYGTDFTLTISSLQPEDVAVYYCQQDYNSPRTFGQGTKLEVKRGGGGSGGGGSGGGGSGGGGSQVQLVQSGAEVKKPGASVKVSCTASGYTFTHYGMNWVRQAPGRGLEWMGWINTYTGEPTYADKFKDRITFSLETSASTVYMELTSLTSDDTAVYYCARERGDAMDYWGQGTLVTVSS
2. TB-A H_F68L (scFv) scFv: DIVMTQSPSSLSASVGDRVTLTCTASQSVSNDVVWYQQRPGKAPKLLIYSAFNRYTGVPSRFSGRGYGTDFTLTISSLQPEDVAVYYCQQDYNSPRTFGQGTKLEVKRGGGGSGGGGSGGGGSGGGGSQVQLVQSGAEVKKPGASVKVSCTASGYTFTHYGMNWVRQAPGKGLEWMGWINTYTGEPTYADKFKDRLTFSLETSASTVYMELTSLTSDDTAVYYCARERGDAMDYWGQGTLVTVSS

Result:
1.37
1.32
